System: C2C12 cells
Assay: Evaluation of myogenesis of C2C12 cells by fusion index
Format: cell-based, mouse
Settings: Group 5; 1 μM; differentiation condition 72 hours; DMSO as 1; average of three
Listing of recorded relative fusion index (FI) by entry.

- query_smiles: "Cc1ccccc1-n1cnc(N)c1C(=O)C12CC3CC(CC(C3)C1)C2"
  system_name: "C2C12 cells"
  relative fusion index (FI): 1.08
- query_smiles: "CCOC(=O)c1c(N)ncn1-c1ccccc1C"
  system_name: "C2C12 cells"
  relative fusion index (FI): 1.12
- query_smiles: "N#Cc1ccc(-n2cnc(N)c2C(=O)c2ccccc2)cc1"
  system_name: "C2C12 cells"
  relative fusion index (FI): 1.04

Now consider the entry below.
Quick check: relative fusion index (FI) of Cc1ccc(-n2cnc(/N=C/N3CCOCC3)c2C(=O)c2ccccc2)cc1 ?
1.10
